- System: U2OS
- Procedure text: cell viability relative to DMSO; higher = less toxic
- Condition parameters: 72 h; 1000 nM
Readout kind: cell viability

Requested field: cell viability. Item: `Cc1cc(O)c2c(=O)c3c(O)cc(O)c4c5c(O)cc(O)c6c(=O)c7c(O)cc(C)c8c1c2c(c34)c(c78)c65`
96.2%

Requested field: cell viability. Item: `O=C1CN=C(c2cccc(Br)c2)c2oc3ccccc3c2N1`
99.7%

Requested field: cell viability. Item: `NNC(=O)c1ccncc1`
96.7%

Requested field: cell viability. Item: `O=C(CCc1ccc(O)cc1)c1c(O)cc(O)cc1O`
96.8%

Requested field: cell viability. Item: `CCCN(CC1CC1)c1nc(C)nc(Nc2c(Cl)cc(Cl)cc2Cl)c1Cl`
101%

Requested field: cell viability. Item: `O=C(NC1CCNCC1)[C@@H]1CC[C@@H]2CN1C(=O)N2OS(=O)(=O)O`
101%

Requested field: cell viability. Item: `COc1ccc(S(=O)(=O)Nc2cccnc2Nc2ccc(O)cc2)cc1`
57.5%

Requested field: cell viability. Item: `O=C(Nc1ccc(Oc2ccc(Cl)cn2)c(Cl)c1)c1ccccn1`
104%

Requested field: cell viability. Item: `C[C@H]1C[C@H]2[C@@H]3CCC4=CC(=O)C=C[C@]4(C)[C@@]3(F)[C@@H](O)C[C@]2(C)[C@@]1(O)C(=O)CO`
97.5%

Requested field: cell viability. Item: `Oc1ccc2ccccc2c1`
97.2%

Requested field: cell viability. Item: `COC(=O)N[C@H](C(=O)N1CCC[C@H]1c1nc(-c2ccc3c(c2)O[C@@H](c2ccccc2)n2c-3cc3cc(-c4c[nH]c([C@@H]5CCCN5C(=O)[C@@H](NC(=O)OC)C(C)C)n4)ccc32)c[nH]1)C(C)C`
97.8%

Requested field: cell viability. Item: Cc1[nH]c2ccc(O)cc2c1CCN [2-methyl-5-hydroxytryptamine]
106%

Requested field: cell viability. Item: `CCOC(=O)Nc1ccc2c(c1)N(C(=O)CCN(CC)CC)c1ccccc1S2`
101%

Requested field: cell viability. Item: `COc1cc(C#N)ccc1S(=O)(=O)Nc1ccc2c(c1)cc(C)c(=O)n2C`
98.5%

Requested field: cell viability. Item: `Cc1nnc2ccc(-c3cccc(C(F)(F)F)c3)nn12`
99.4%

Requested field: cell viability. Item: `COc1cc(/C=C/c2ccc(OC)cc2OC)cc(OC)c1`
101%

Requested field: cell viability. Item: `Cn1nnc(-c2ccc(-c3ccc(N4C[C@H](CO)OC4=O)cc3F)cn2)n1`
96.3%

Requested field: cell viability. Item: `C[C@@H]1CC(=O)c2c(ccc3c2C(=O)c2cccc(O)c2C3=O)C1`
99.7%

Requested field: cell viability. Item: `O=C(O)CCC(=O)C(=O)O`
98.7%

* * *

- Tested on: Vero E6
- Procedure text: cell viability relative to DMSO; higher = less toxic
- Condition parameters: 72 h; 1000 nM
Readout kind: cell viability (%)
Express your answer in %, writing the number without its unit.

Requested field: cell viability. Item: `O=C(NOCCO)c1cc(CN2OCCCC2=O)c(F)c(F)c1Nc1ccc(I)cc1F`
50.7

Requested field: cell viability. Item: [I-].[K+] [potassium-iodide]
101

Requested field: cell viability. Item: OC[C@H]1O[C@H](O)C[C@@H](O)[C@@H]1O [2-deoxyglucose]
100

Requested field: cell viability. Item: CC(C)(C)N1CCC(c2ccccc2)(c2ccccc2)CC1 [budipine]
93.9

Requested field: cell viability. Item: CC(C)COC(=O)c1ccc(N)cc1 [isobutamben]
98.6

Requested field: cell viability. Item: O=C1C(CC[S+]([O-])c2ccccc2)C(=O)N(c2ccccc2)N1c1ccccc1 (stereo unspecified) [sulfinpyrazone]
97.1

Requested field: cell viability. Item: COc1cc(C#N)ccc1S(=O)(=O)Nc1ccc2c(c1)cc(C)c(=O)n2C [NI-57]
95.7

Requested field: cell viability. Item: CCCCNc1cc(C(=O)O)cc(S(N)(=O)=O)c1Oc1ccccc1 [bumetanide]
95.6

Requested field: cell viability. Item: Oc1c(I)cc(I)c(O)c1I [riodoxol]
101

Requested field: cell viability. Item: CCOC(=O)c1c[nH]cn1 [C-751]
92.6

Requested field: cell viability. Item: CCOc1ccc2nc(S(N)(=O)=O)sc2c1 [ethoxzolamide]
96.3

Requested field: cell viability. Item: COc1cc(-c2ncn(/C=C\C(=O)OC(C)C)n2)cc(C(F)(F)F)c1 [KPT-185]
41.8

Requested field: cell viability. Item: OC(c1ccccc1)C1CCN(CCc2ccccc2)CC1 (stereo unspecified)
93.8

Requested field: cell viability. Item: Nc1nccs1 [aminothiazole]
93.4

Requested field: cell viability. Item: `CN1CCN(C(=O)c2nc3ccc(Cl)cc3[nH]2)CC1`
102

Requested field: cell viability. Item: Cn1nnc2c(C(N)=O)ncn2c1=O [temozolomide]
98.2

Requested field: cell viability. Item: `COc1cc(N2CCOCC2)ccc1Nc1ncc(Cl)c(Nc2ccccc2NS(C)(=O)=O)n1`
76.9

Requested field: cell viability. Item: CCOC(=O)Nc1ccc2c(c1)N(C(=O)CCN(CC)CC)c1ccccc1S2 [ethacizin]
88.9

Requested field: cell viability. Item: O=c1[nH]c(=O)n([C@H]2C[C@H](O)[C@@H](CO)O2)cc1I [idoxuridine]
99.8

Requested field: cell viability. Item: Nc1ncnc2nc(-c3ccc(N4CCOCC4)nc3)cc(-c3cccc(Br)c3)c12 [ABT-702]
94.4

Requested field: cell viability. Item: CC(C)N1CCN(c2ccc(OCC3COC(Cn4cncn4)(c4ccc(Cl)cc4Cl)O3)cc2)CC1 (stereo unspecified) [terconazole]
90.8

* * *

- System: U2OS
- Procedure text: cell viability relative to DMSO; higher = less toxic
- Condition parameters: 72 h; 1 nM
Readout kind: cell viability (%)
Express your answer in %, writing the number without its unit.

Requested field: cell viability. Item: COC(=O)c1ccccc1NC(=O)c1ccc(F)cc1 [EXO-1]
98.7

Requested field: cell viability. Item: COc1ccc(S(=O)(=O)Nc2cccnc2Nc2ccc(O)cc2)cc1 [ABT-751]
103

Requested field: cell viability. Item: C=CC(=O)N1CCN(C(=O)CNc2cc(I)c(Cl)cc2O)CC1 [K-Ras(G12C)-inhibitor-12]
108

Requested field: cell viability. Item: Cc1[nH]c2ccc(O)cc2c1CCN [2-methyl-5-hydroxytryptamine]
101

Requested field: cell viability. Item: Oc1nc(O)c2nc(O)[nH]c2n1 [uric-acid]
101

* * *

- Tested on: U2OS
- Procedure text: cell viability relative to DMSO; higher = less toxic
- Condition parameters: 72 h; 1 nM
For each entry below, report its cell viability value.
Express your answer in %, writing the number without its unit.

Requested field: cell viability. Item: CCCN(C/C=C/I)[C@H]1CCc2ccc(O)cc2C1 [7-hydroxy-PIPAT]
98

Requested field: cell viability. Item: `COc1cc(O)c(C(=O)c2ccccc2)cc1S(=O)(=O)O`
103

Requested field: cell viability. Item: CC(=O)OC[C@H]1O[C@@](COC(C)=O)(O[C@H]2O[C@H](COC(C)=O)[C@@H](OC(C)=O)[C@H](OC(C)=O)[C@H]2OC(C)=O)[C@@H](OC(C)=O)[C@@H]1OC(C)=O [sucrose-octaacetate]
95.1

Requested field: cell viability. Item: CC(C)C(=O)Nc1ccc([N+](=O)[O-])c(C(F)(F)F)c1 [flutamide]
92

Requested field: cell viability. Item: `CC(C)=CCC[C@](C)(O)[C@H]1CC[C@]2(C)[C@@H]1[C@H](O)C[C@@H]1[C@@]3(C)CC[C@H](O)C(C)(C)[C@@H]3[C@@H](O)C[C@]12C`
97.4

Requested field: cell viability. Item: CC1CCc2cc(F)cc3c(=O)c(C(=O)O)cn1c23 (centres undefined)
98.1

Requested field: cell viability. Item: `COc1cc(/C=C/c2ccc(OC)cc2OC)cc(OC)c1`
98.8

Requested field: cell viability. Item: `Nc1ncnc2c1ncn2[C@@H]1O[C@@H]2COP(=O)(O)O[C@H]2[C@H]1O`
103

Requested field: cell viability. Item: c1nc(CC2CCNCC2)c[nH]1 [immepip]
98.1

* * *

- Test system: U2OS
- Procedure text: cell viability relative to DMSO; higher = less toxic
- Condition parameters: 72 h; 1000 nM
For each entry below, report its cell viability value.
Express your answer in %, writing the number without its unit.

Quick check: cell viability on U2OS, item CC(C)C(=O)Nc1ccc([N+](=O)[O-])c(C(F)(F)F)c1 [flutamide] ?
100

Quick check: cell viability on U2OS, item `CC1(C)O[C@H]2CC(=O)OC[C@]23[C@H]2CC[C@@]4(C)[C@H](c5ccoc5)OC(=O)[C@H]5O[C@]54[C@]2(C)C(=O)C[C@@H]13` ?
99

Quick check: cell viability on U2OS, item `NC/C(=C/F)CCc1ccc(F)cc1` ?
96.2

Quick check: cell viability on U2OS, item CCCCCC(O)CCCC(=O)O (centres undefined) ?
95.8

Quick check: cell viability on U2OS, item `OC[C@H]1O[C@H](O)C[C@@H](O)[C@@H]1O` ?
99.4

Quick check: cell viability on U2OS, item COc1cc(C2Oc3cc([C@H]4Oc5cc(O)cc(O)c5C(=O)[C@@H]4O)ccc3OC2CO)ccc1O (some centres undefined) ?
98.9

Quick check: cell viability on U2OS, item `COc1cc(Br)c(Nc2nc(-c3c(C)nc4ncccn34)cs2)c(Br)c1` ?
55.3

Quick check: cell viability on U2OS, item CS(=O)(=O)c1ccc(Cn2c3c(c4cc(F)cc(F)c42)CCCC3CC(=O)O)cc1 (centres undefined) ?
97.1

Quick check: cell viability on U2OS, item `COc1ccc(/C=C/CCCCOc2ccc(C(=O)c3cccc(C(=O)O)c3)cc2CCC(=O)O)cc1` ?
100
